- assayed-target: T1, human LAG-3 on cells (HEK293-hLAG-3 stable cell line) (human, UniProt P18627 23-525)
- T1 sequence: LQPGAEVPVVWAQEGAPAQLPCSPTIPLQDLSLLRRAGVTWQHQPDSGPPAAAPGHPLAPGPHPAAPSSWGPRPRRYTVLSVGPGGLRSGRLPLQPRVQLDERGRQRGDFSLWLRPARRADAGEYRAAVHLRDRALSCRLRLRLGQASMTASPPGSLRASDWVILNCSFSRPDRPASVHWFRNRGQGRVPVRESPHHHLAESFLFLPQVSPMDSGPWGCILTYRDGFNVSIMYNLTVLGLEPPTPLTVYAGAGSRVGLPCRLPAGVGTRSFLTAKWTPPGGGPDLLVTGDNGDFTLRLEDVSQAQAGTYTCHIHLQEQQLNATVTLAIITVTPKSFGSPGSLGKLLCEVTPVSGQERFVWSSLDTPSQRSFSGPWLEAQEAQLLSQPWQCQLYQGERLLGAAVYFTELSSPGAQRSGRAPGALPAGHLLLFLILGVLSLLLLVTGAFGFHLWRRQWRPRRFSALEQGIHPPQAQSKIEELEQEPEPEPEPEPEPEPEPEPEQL
- procedure-text: FACS, HEK293-hLAG-3, antibody 0.000 nM
measurement-label: Mean fluorescence intensity
Reply with the value as a number alone.

Answered cases to consult:
>>> recorded_number("405B8H3 mouse-human chimeric antibody (antibody, V domains shown, also called mAb103-405B8H3) VH: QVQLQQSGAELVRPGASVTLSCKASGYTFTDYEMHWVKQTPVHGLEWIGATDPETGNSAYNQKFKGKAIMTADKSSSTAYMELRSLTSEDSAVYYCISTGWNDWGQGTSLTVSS VL: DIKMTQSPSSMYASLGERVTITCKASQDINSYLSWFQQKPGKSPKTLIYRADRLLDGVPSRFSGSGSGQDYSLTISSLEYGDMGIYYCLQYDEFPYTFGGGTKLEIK")
2.8
>>> recorded_number("409B11E12 mouse-human chimeric antibody (antibody, V domains shown, also called mAb104-409B11E12) VH: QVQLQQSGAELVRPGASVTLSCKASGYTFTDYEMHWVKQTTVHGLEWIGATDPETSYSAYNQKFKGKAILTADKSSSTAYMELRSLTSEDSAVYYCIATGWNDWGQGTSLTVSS VL: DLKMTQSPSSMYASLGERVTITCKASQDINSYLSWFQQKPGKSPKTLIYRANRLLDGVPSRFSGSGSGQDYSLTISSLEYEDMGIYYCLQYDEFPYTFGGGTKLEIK")
2.8
>>> recorded_number("556F6B8 mouse-human chimeric antibody (antibody, V domains shown, also called mAb123-556F6B8; 556F8B8) VH: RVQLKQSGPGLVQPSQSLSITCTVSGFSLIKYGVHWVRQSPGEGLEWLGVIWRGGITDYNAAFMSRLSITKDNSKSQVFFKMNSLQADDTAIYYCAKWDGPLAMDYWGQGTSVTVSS VL: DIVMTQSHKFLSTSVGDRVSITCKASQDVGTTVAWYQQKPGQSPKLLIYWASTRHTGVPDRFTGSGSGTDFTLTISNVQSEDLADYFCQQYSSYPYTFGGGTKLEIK")
3.3

Here is the next item to consider.
409D4E10 mouse-human chimeric antibody (antibody, V domains shown, also called mAb112-409D4E10) VH: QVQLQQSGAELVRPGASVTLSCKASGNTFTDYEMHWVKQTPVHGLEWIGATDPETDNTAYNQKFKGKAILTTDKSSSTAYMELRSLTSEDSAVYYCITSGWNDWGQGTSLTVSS VL: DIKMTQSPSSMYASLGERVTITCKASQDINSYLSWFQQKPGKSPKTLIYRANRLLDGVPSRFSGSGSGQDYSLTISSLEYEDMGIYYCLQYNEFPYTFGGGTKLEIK yielded Mean fluorescence intensity of 3
